Assay: protein stability index of a GFP-peptide fusion (yeast GPS) (PSI 1-4); higher = more stable; sorted into four equal gates, so the index is relative within each strain
Conditions: pdr5∆
Kindly return condition met if reported protein stability index is no lower than 3; return condition not met if it is lower.

Use the examples below as a reference point.
>>> print(df.to_string())
                       sequence_text              class
0  QQRGITYLNEVLEKDAA [YGR119C/NUP57]      condition met
1           PNEFEIQLSTVNRQSPL [RGR1]  condition not met
2          TLVGGGAKITPEMIKRS [RRP43]      condition met
3           RETDPLVYNMTSFEQGE [RPT4]  condition not met
4           VLIAQERSAGNIVQVFK [RPB2]      condition met

[Q] Does the sequence WRQFGNRMQISPDQMRN [GRR1] have recorded protein stability index that is 3 or more?
[A] condition met

[Q] Does the sequence QGEVGAVFIVPKILIRE [SWP82] have recorded protein stability index that is 3 or more?
[A] condition not met

[Q] Does the sequence QRSNISTAIKSLVALGI [CDC53] have recorded protein stability index that is 3 or more?
[A] condition not met

[Q] Does the sequence YLKESKRKYDEITHPPS [SWI3] have recorded protein stability index that is 3 or more?
[A] condition met

[Q] Does the sequence GCLVKREDLNKAEYVDQ [RPO31] have recorded protein stability index that is 3 or more?
[A] condition met

[Q] Does the sequence VGVENNGQYAAFVKDMQ [RPC37] have recorded protein stability index that is 3 or more?
[A] condition not met

[Q] Does the sequence GQVVLTPLTFALPRGAR [RPL14A] have recorded protein stability index that is 3 or more?
[A] condition not met

[Q] Does the sequence DNTARVIFDASIKDTQN [BRN1] have recorded protein stability index that is 3 or more?
[A] condition not met

[Q] Does the sequence ILSINAIDYEPEYEKAM [SMC1] have recorded protein stability index that is 3 or more?
[A] condition met

---

Assay: protein stability index of a GFP-peptide fusion (yeast GPS) (PSI 1-4); higher = more stable; sorted into four equal gates, so the index is relative within each strain
Details: pdr5∆
Kindly return criterion met if reported protein stability index is no lower than 3; return criterion not met if it is lower.

Use the examples below as a reference point.
>>> print(df.to_string())
               sequence_text              class
0   EEYRKQLDKKNELQKFQ [SMC1]      criterion met
1  MGRMHSAGKGISSSAIP [RPS13]  criterion not met
2   LVHTQIRKTPLAQKKAH [RPL3]  criterion not met

[Q] Does the sequence AKKLSSFDFGNENEDED [ARP9] have recorded protein stability index that is 3 or more?
[A] criterion met

---

Assay: protein stability index of a GFP-peptide fusion (yeast GPS) (PSI 1-4); higher = more stable; sorted into four equal gates, so the index is relative within each strain
Conditions: ubr1∆
The following sequences are shown together with reported protein stability index values.
Please reply with the value in numeric form only.

>>> print(df.to_string())
                        sequence_text             assay_metric  measured_number
0            SVVKKEDNKYAIAGNST [RGR1]  protein stability index             2.92
1            NLLLSASRDKTLISWKL [ASC1]  protein stability index              2.2
2           FPMKQGVLLPTRIKLLL [RPS6A]  protein stability index             1.29
3  IELSDGSTFKVNQEFIF [YJL039C/NUP192]  protein stability index             3.13
4          KDQYVPEVSALDLSRSN [RPS17A]  protein stability index              2.2
5  IIAELSFLKVDPDLGLD [YJL039C/NUP192]  protein stability index                3
6          TAFNKTRGPFHFRAPSR [RPL16B]  protein stability index                3
7            HSFEDAHTPMLQMYSKI [FAS1]  protein stability index             2.84
8           YSKAKYPDLQPFVLAEN [CDC53]  protein stability index             2.26
9            TAIGIATKEGVVLGVEK [PUP2]  protein stability index             3.11

protein stability index in this record for HLDSFNYFVDTDLKKII [RET1] : 2.64

protein stability index in this record for DIQLKNLFPLKPKMLPI [SRP68] : 2.46

protein stability index in this record for NTVVGISGDISDMQHIE [PRE4] : 2.82

---

Test: protein stability index of a GFP-peptide fusion (yeast GPS) (PSI 1-4); higher = more stable; sorted into four equal gates, so the index is relative within each strain
Details: pdr5∆
Kindly return Fulfilled if reported protein stability index is no lower than 3; return Not fulfilled if it is lower.

>>> print(df.to_string())
                       sequence_text          class
0           EYKLATYGVPGSENKRG [NUT1]      Fulfilled
1           TASFIPLDTIETELPTL [SMC1]  Not fulfilled
2           SEPLTLKVLSEHLDCMN [PCI8]  Not fulfilled
3           LYFEIIHGVLKNVDREV [FAS2]  Not fulfilled
4  TIANSIILHFANFGEIL [YMR153W/NUP53]  Not fulfilled

[Q] Does the sequence LDFIGRRGTALGIKKEK [RPB2] have recorded protein stability index that is 3 or more?
[A] Not fulfilled

[Q] Does the sequence YSLQPSVDITGGPWFTD [RPC34] have recorded protein stability index that is 3 or more?
[A] Not fulfilled

[Q] Does the sequence SRKRKPKSASNTSSKRQ [IRR1] have recorded protein stability index that is 3 or more?
[A] Not fulfilled

[Q] Does the sequence ENPAFLPGTNNNSNSNN [SEC65] have recorded protein stability index that is 3 or more?
[A] Fulfilled

---

The following sequences are shown together with reported protein stability index values.
Assay: protein stability index of a GFP-peptide fusion (yeast GPS) (PSI 1-4); higher = more stable; sorted into four equal gates, so the index is relative within each strain
Details: ubr1∆
Please reply with the value in numeric form only.

protein stability index in this record for SVDMSALKDPQTDADRV [RIP1] : 3.56

protein stability index in this record for LDLLRPVVRAPTVKYNR [RPL13A] : 2.08

protein stability index in this record for KIDSHVVLSFSGLNADS [PRE6] : 2.19

protein stability index in this record for LISDQLLEFFELVFSKG [YML103C/NUP188] : 2.9

---

Assay: protein stability index of a GFP-peptide fusion (yeast GPS) (PSI 1-4); higher = more stable; sorted into four equal gates, so the index is relative within each strain
Conditions: doa10∆
Kindly return class 1 if reported protein stability index is no lower than 3; return class 0 if it is lower.

>>> df
              sequence_text    class
0  EYIDAEEEESILIAMQP [RPB2]  class 1
1  KMPGGFTITVARKYLQT [FAS2]  class 0
2  VIKRLEASTVPWGDYLQ [BRR2]  class 0

[Q] Does the sequence CKQFPKLSCIQLNCIDT [SRB8] have recorded protein stability index that is 3 or more?
[A] class 0

[Q] Does the sequence DKNKLLLLAAQIVSYCS [SSN2] have recorded protein stability index that is 3 or more?
[A] class 0

[Q] Does the sequence YLLEELESYLIVHHPYQ [SSN8] have recorded protein stability index that is 3 or more?
[A] class 0

[Q] Does the sequence LAHSQHRCAIRSGALIK [SSN2] have recorded protein stability index that is 3 or more?
[A] class 0

[Q] Does the sequence HYVVLDTNVVLQAIDLL [DIS3] have recorded protein stability index that is 3 or more?
[A] class 0

[Q] Does the sequence RGHVLQFEWHQNSLLTN [SNF2] have recorded protein stability index that is 3 or more?
[A] class 0

[Q] Does the sequence SGYNQEDSMIMNQSSID [RPB2] have recorded protein stability index that is 3 or more?
[A] class 0

[Q] Does the sequence IRYNSVEIQEVPRTADR [RPC82] have recorded protein stability index that is 3 or more?
[A] class 0

[Q] Does the sequence SFLKVDPDLGLDLMFDE [YJL039C/NUP192] have recorded protein stability index that is 3 or more?
[A] class 1

[Q] Does the sequence QQPTASDNIASLQYINI [SMD1] have recorded protein stability index that is 3 or more?
[A] class 1

---

Test: protein stability index of a GFP-peptide fusion (yeast GPS) (PSI 1-4); higher = more stable; sorted into four equal gates, so the index is relative within each strain
Conditions: ubr1∆
The following sequences are shown together with reported protein stability index values.

# count of solved cases: 3
>>> print(df.to_string())
              sequence_text             assay_metric  result
0  TKAVEFSMGHIRSSSVS [MED4]  protein stability index    2.99
1  PIKNRKNDTHYLLPDDF [BRN1]  protein stability index    2.95
2  LIIDDPSKGQSLSKISQ [RPP1]  protein stability index    3.02

Then there is this sequence:
protein stability index in this record for GLRNQNMVRNNNNNTID [GRR1] : 2.96
